This collection of values is drawn from the supplement of paper PMC5762512.

IC50 cell viability reference
# Test system: RPMI2650
# assayComment: IC50 cell viability (Alamar Blue, 96 h)
assayReadout: IC50 cell viability

>>> recordedresult("CC[C@@]1([C@@H]2O[C@@H]([C@H]3O[C@@](O)(CO)[C@H](C)C[C@@H]3C)C[C@@H]2C)CC[C@H]([C@]2(C)CC[C@]3(C[C@H](O)[C@@H](C)[C@@H]([C@@H](C)[C@@H](OC)[C@H](C)C(=O)O)O3)O2)O1")
"> 10 µM"
>>> recordedresult("COc1cc2c(cc1-c1c(C)noc1C)ncc1[nH]c(=O)n([C@H](C)c3ccccn3)c12")
"6.81 µM"
>>> recordedresult("O=C1c2c(O)ccc(O)c2C(=O)c2c(NCCNCCO)ccc(NCCNCCO)c21")
"1.28 µM"
>>> recordedresult("C[C@H]1O[C@@H](O[C@H]2[C@@H](O)C[C@H](O[C@H]3[C@@H](O)C[C@H](O[C@H]4CC[C@@]5(C)[C@H](CC[C@@H]6[C@@H]5C[C@@H](O)[C@]5(C)[C@@H](C7=CC(=O)OC7)CC[C@]65O)C4)O[C@@H]3C)O[C@@H]2C)C[C@H](O)[C@@H]1O")
"0.0976 µM"
>>> recordedresult("C#Cc1cccc(Nc2ncnc3cc(OCCOC)c(OCCOC)cc23)c1")
"> 10 µM"
>>> recordedresult("CCN(CCCOc1ccc2c(Nc3cc(CC(=O)Nc4cccc(F)c4)[nH]n3)ncnc2c1)CCOP(=O)(O)O")
"> 10 µM"
>>> recordedresult("COc1cc2ncnc(Nc3ccc(F)c(Cl)c3)c2cc1OCCCN1CCOCC1")
"> 10 µM"
>>> recordedresult("COc1cc(Nc2ncc3c(n2)-c2ccc(Cl)cc2C(c2c(F)cccc2OC)=NC3)ccc1C(=O)O")
"> 10 µM"
>>> recordedresult("C/C(=C\\c1csc(C)n1)[C@@H]1C[C@@H]2O[C@]2(C)CCC[C@H](C)[C@H](O)[C@@H](C)C(=O)C(C)(C)[C@@H](O)CC(=O)O1")
"> 10 µM"
>>> recordedresult("CC[C@@]1(O)C(=O)OCc2c1cc1n(c2=O)Cc2cc3c(CN(C)C)c(O)ccc3nc2-1")
"0.391 µM"
>>> recordedresult("COc1ccccc1S(=O)(=O)Nc1ccc2c(c1)CN(C)C(=O)N2")
"> 10 µM"
>>> recordedresult("CC(=O)O[C@@]12CO[C@@H]1C[C@H](O)[C@@]1(C)C(=O)[C@H](O)C3=C(C)[C@@H](OC(=O)[C@H](O)[C@@H](NC(=O)OC(C)(C)C)c4ccccc4)C[C@@](O)([C@@H](OC(=O)c4ccccc4)[C@H]21)C3(C)C")
"> 10 µM"
>>> recordedresult("CCCOc1ccn2c(C(C)=O)cc(-c3ccccc3S(C)(=O)=O)c2c1")
"> 10 µM"
